Source: patent US20240270821A1

Can you tell me cAMP Rel EC50, nM (1% HSA) for the items I'm about to list?
Biological target: human glucagon receptor (human) (UniProt P47871)
Sequence (P47871 26-477): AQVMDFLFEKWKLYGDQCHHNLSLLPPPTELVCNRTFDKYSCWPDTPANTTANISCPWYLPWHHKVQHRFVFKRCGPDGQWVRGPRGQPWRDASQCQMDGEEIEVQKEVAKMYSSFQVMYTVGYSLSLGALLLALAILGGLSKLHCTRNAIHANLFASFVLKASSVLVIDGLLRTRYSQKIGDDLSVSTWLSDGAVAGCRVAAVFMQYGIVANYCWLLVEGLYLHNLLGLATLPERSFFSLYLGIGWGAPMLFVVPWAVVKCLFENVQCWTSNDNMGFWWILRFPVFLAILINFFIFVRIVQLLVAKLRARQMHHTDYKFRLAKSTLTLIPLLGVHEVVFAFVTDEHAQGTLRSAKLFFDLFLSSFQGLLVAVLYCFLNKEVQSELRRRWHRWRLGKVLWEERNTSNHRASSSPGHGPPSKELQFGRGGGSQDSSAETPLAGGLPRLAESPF
Assay: cell-based or functional assay
Answers are plain numbers, in nM.

binder	cAMP Rel EC50, nM (1% HSA), nM
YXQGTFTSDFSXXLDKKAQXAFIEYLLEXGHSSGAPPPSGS (acylated; synthetic construct; SITE 2: note = 2-Aminoisobutyric Acid; SITE 12: note = L-ornithine; SITE 13: note = alpha-methyl-leucine; SITE 17: note = Lysine is chemically modified through conjugation of the epsilon-amino group of the Lysine side chain with (gamma-Glu)-(2-[2-(2-Amino-ethoxy)-ethoxy]-acetyl)) [Example 245]	1120
YXQGTFTSDXSQXLDKKAQXAFIEYLIEXGESSGAPPPSGS (acylated; synthetic construct; SITE 2: note = 2-Aminoisobutyric Acid; SITE 10: note = 3-(4-Pyridyl)-L-alanine; SITE 13: note = alpha-methyl-leucine; SITE 17: note = Lysine is chemically modified through conjugation of the epsilon-amino group of the Lysine side chain with (2-[2-(2-Amino-ethoxy)-ethoxy]-acetyl)) [Example 226]	763
YXQGTFTSDXSQXLDXKAQXAFIEYLIAGGPSSGEPPPSGS (non-natural residues; lipidated Lys; C-terminal amide; synthetic construct; SITE 2: note = 2-Aminoisobutyric Acid; SITE 10: note = 3-(4-Pyridyl)-L-alanine; SITE 13: note = alpha-methyl-leucine; SITE 16: note = L-ornithine; SITE 17: note = Lysine is chemically modified through conjugation of the epsilon-amino group of the Lysine side chain with (gamma-Gl)) [Example 1007]	636
YXQGTXTSDXXIXLDXKAQXEFIEXLVEGGPSSGAPPPSGSE (synthetic construct; SITE 2: note = 2-Aminoisobutyric Acid; SITE 6: note = alpha-methyl-2-fluoro-L-phenylalanine; SITE 10: note = 3-(4-Pyridyl)-L-alanine; SITE 11: note = alpha-methyl-L-serine; SITE 13: note = alpha-methyl-leucine; SITE 16: note = L-ornithine; SITE 17: note = Lysine is chemically mo) [Example 751]	267
YXQGTFTSDXSXXLDKKAQXAFIEXLIEGGPSSGAPPPSGSEE (Aib, 4Pal, Orn, αMeL, Me4Pal, acylated K, C-terminal amide; synthetic construct; SITE 2: note = 2-Aminoisobutyric Acid; SITE 10: note = 3-(4-Pyridyl)-L-alanine; SITE 12: note = L-ornithine; SITE 13: note = alpha-methyl-leucine; SITE 17: note = Lysine is chemically modified through conjugation of the epsilon-amino group of the Lysine side chain with (gamma-Gl)) [Example 958]	340

# evaluate next
cAMP Rel EC50, nM (1% HSA) reported for this binder YXQGTFTSDXSXXLDKKAQXAFIEYLIAGGPSSGEPPPSGTE (non-natural residues (Aib, 4Pal, Orn, αMeL, Me4Pal); lipidated K; amide; synthetic construct; SITE 2: note = 2-Aminoisobutyric Acid; SITE 10: note = 3-(4-Pyridyl)-L-alanine; SITE 12: note = L-ornithine; SITE 13: note = alpha-methyl-leucine; SITE 17: note = Lysine is chemically modified through conjugation of the epsilon-amino group of the Lysine side chain with (gamma-Gl)) [Example 980] : 239
